These measurements were taken from ChEMBL document CHEMBL4196088.

# Tested on: Fibroblast
# experimentSummary: Induction of apoptosis in human primary fibroblasts at 20 uM after 48 hrs by propidium iodide staining based flow cytometry (reference value: 6.1%)
# Assay type: cell-based
endpointName: Activity

molecule=Cl.O[C@H]1CN[C@H](COCCCCCCCCC/C=C/c2ccc(Oc3ccccc3)cc2)C1 valuereported=87.9%
molecule=Cl.O[C@H]1CN[C@H](COCCCCCC/C=C/c2ccc(-c3ccccc3)cc2)C1 valuereported=75.4%
molecule=Cl.O[C@H]1CN[C@H](COCCCCCCCCC/C=C/c2ccc(-c3ccccc3)cc2)C1 valuereported=21.7%
molecule=Cl.O[C@H]1CN[C@H](COCCCCCCCC/C=C/c2ccc(Oc3ccccc3)cc2)C1 valuereported=74.8%
molecule=CCCCCC/C=C\CCCCCCCCOC[C@H]1NC[C@H](O)[C@@H]1O valuereported=13.9%
molecule="CCCCCCCCCCCCCCCCCCOCC(COP(=O)([O-])OCC[N+](C)(C)C)OC (stereo unspecified)" valuereported=8.6%

----------
# Tested on: Fibroblast
# experimentSummary: Induction of apoptosis in human primary fibroblasts assessed as accumulation at sub-G0/G1 phase at 10 uM after 72 hrs by propidium iodide staining based flow cytometry (reference value: 6.7%)
# Type: cell-based
endpointName: Activity

molecule=CCCCCC/C=C\CCCCCCCCOC[C@H]1NC[C@H](O)[C@@H]1O endpointname=Activity valuereported=9.5%
molecule="CCCCCCCCCCCCCCCCCCOCC(COP(=O)([O-])OCC[N+](C)(C)C)OC (configuration not stated)" endpointname=Activity valuereported=8.7%
molecule=Cl.O[C@H]1CN[C@H](COCCCCCC/C=C/c2ccc(-c3ccccc3)cc2)C1 endpointname=Activity valuereported=54.5%
molecule=Cl.O[C@H]1CN[C@H](COCCCCCCCCC/C=C/c2ccc(-c3ccccc3)cc2)C1 endpointname=Activity valuereported=22.1%
molecule=CCCCCCCC/C=C\CCCCCCCCOCC[C@H]1NC[C@H](O)[C@@H]1O endpointname=Activity valuereported=9.2%
molecule=Cl.O[C@H]1CN[C@H](COCCCCCCCCC/C=C/c2ccc(Oc3ccccc3)cc2)C1 endpointname=Activity valuereported=6.5%
molecule=Cl.O[C@H]1CN[C@H](COCCCCCCCC/C=C/c2ccc(Oc3ccccc3)cc2)C1 endpointname=Activity valuereported=8.1%

----------
# experimentSummary: Induction of apoptosis in HPNE cells assessed as accumulation at sub-G0/G1 phase at 10 uM after 48 hrs by propidium iodide staining based flow cytometry (reference value: 0.7%)
# Format: cell-based
# measurementConditions: human
endpointName: Activity

molecule=Cl.O[C@H]1CN[C@H](COCCCCCCCCC/C=C/c2ccc(-c3ccccc3)cc2)C1 valuereported=83.5%
molecule=CCCCCCCC/C=C\CCCCCCCCOCC[C@H]1NC[C@H](O)[C@@H]1O valuereported=22.2%
molecule=O[C@H]1[C@@H](O)CN[C@@H]1COCCCCCCCC/C=C/c1ccc(Oc2ccccc2)cc1 valuereported=6.8%
molecule="CCCCCCCCCCCCCCCCCCOCC(COP(=O)([O-])OCC[N+](C)(C)C)OC (stereo not given)" valuereported=3.5%
molecule=Cl.O[C@H]1CN[C@H](COCCCCCC/C=C/c2ccc(-c3ccccc3)cc2)C1 valuereported=78.5%
molecule=Cl.O[C@H]1CN[C@H](COCCCCCCCCC/C=C/c2ccc(Oc3ccccc3)cc2)C1 valuereported=86.1%
molecule=CCCCCC/C=C\CCCCCCCCOC[C@H]1NC[C@H](O)[C@@H]1O valuereported=30.8%
molecule=CCCCCCCCCCCCCCCCOC[C@H]1NC[C@H](O)[C@@H]1O valuereported=2.2%
molecule=Cl.O[C@H]1CN[C@H](COCCCCCCCC/C=C/c2ccc(Oc3ccccc3)cc2)C1 valuereported=72.9%
molecule=CCCCCC/C=C/CCCCCCCCOC[C@H]1NC[C@H](O)[C@@H]1O valuereported=2%

----------
# experimentSummary: Induction of apoptosis in HPNE cells assessed as accumulation at sub-G0/G1 phase at 20 uM after 24 hrs by propidium iodide staining based flow cytometry (reference value: 0.6%)
# Assay type: cell-based
# measurementConditions: human
Strictly below 60% in Activity: class 1. Otherwise: class 0.

molecule=CCCCCC/C=C\CCCCCCCCOC[C@H]1NC[C@H](O)[C@@H]1O classlabel="class 0"
molecule=CCCCCCCC/C=C\CCCCCCCCOCC[C@H]1NC[C@H](O)[C@@H]1O classlabel="class 0"
molecule=CCCCCC/C=C/CCCCCCCCOC[C@H]1NC[C@H](O)[C@@H]1O classlabel="class 1"
molecule=Cl.O[C@H]1CN[C@H](COCCCCCCCCC/C=C/c2ccc(-c3ccccc3)cc2)C1 classlabel="class 0"
molecule="CCCCCCCCCCCCCCCCCCOCC(COP(=O)([O-])OCC[N+](C)(C)C)OC (stereo not given) [EDELFOSINE]" classlabel="class 1"
molecule=CCCCCCCCCCCCCCCCOC[C@H]1NC[C@H](O)[C@@H]1O classlabel="class 1"
molecule=O[C@H]1[C@@H](O)CN[C@@H]1COCCCCCCCC/C=C/c1ccc(Oc2ccccc2)cc1 classlabel="class 0"
molecule=Cl.O[C@H]1CN[C@H](COCCCCCC/C=C/c2ccc(-c3ccccc3)cc2)C1 classlabel="class 0"
molecule=Cl.O[C@H]1CN[C@H](COCCCCCCCCC/C=C/c2ccc(Oc3ccccc3)cc2)C1 classlabel="class 0"
molecule=Cl.O[C@H]1CN[C@H](COCCCCCCCC/C=C/c2ccc(Oc3ccccc3)cc2)C1 classlabel="class 0"

----------
# System: Fibroblast
# experimentSummary: Induction of apoptosis in human primary fibroblasts assessed as accumulation at sub-G0/G1 phase at 10 uM after 48 hrs by propidium iodide staining based flow cytometry (reference value: 6.1%)
# Assay type: cell-based
Label yes when Activity >= 9%; otherwise no.

molecule=Cl.O[C@H]1CN[C@H](COCCCCCCCCC/C=C/c2ccc(-c3ccccc3)cc2)C1 targetdesc=Fibroblast classlabel=yes
molecule=Cl.O[C@H]1CN[C@H](COCCCCCCCC/C=C/c2ccc(Oc3ccccc3)cc2)C1 targetdesc=Fibroblast classlabel=no
molecule=CCCCCCCC/C=C\CCCCCCCCOCC[C@H]1NC[C@H](O)[C@@H]1O targetdesc=Fibroblast classlabel=no
molecule=CCCCCC/C=C\CCCCCCCCOC[C@H]1NC[C@H](O)[C@@H]1O targetdesc=Fibroblast classlabel=no
molecule=Cl.O[C@H]1CN[C@H](COCCCCCCCCC/C=C/c2ccc(Oc3ccccc3)cc2)C1 targetdesc=Fibroblast classlabel=no
molecule=Cl.O[C@H]1CN[C@H](COCCCCCC/C=C/c2ccc(-c3ccccc3)cc2)C1 targetdesc=Fibroblast classlabel=yes
molecule="CCCCCCCCCCCCCCCCCCOCC(COP(=O)([O-])OCC[N+](C)(C)C)OC (configuration not stated)" targetdesc=Fibroblast classlabel=no

----------
# Test system: PK9
# experimentSummary: Induction of apoptosis in human PK9 cells assessed as accumulation at sub-G0/G1 phase at 20 uM after 72 hrs by propidium iodide staining based flow cytometry (reference value: 4%)
# Format: functional
endpointName: Activity (%)

compound=CCCCCCCC/C=C\CCCCCCCCOCC[C@H]1NC[C@H](O)[C@@H]1O endpointname=Activity valuereported=37.7
compound=CCCCCC/C=C\CCCCCCCCOC[C@H]1NC[C@H](O)[C@@H]1O endpointname=Activity valuereported=28.6
compound=Cl.O[C@H]1CN[C@H](COCCCCCCCC/C=C/c2ccc(Oc3ccccc3)cc2)C1 endpointname=Activity valuereported=48.7
compound=O[C@H]1[C@@H](O)CN[C@@H]1COCCCCCCCC/C=C/c1ccc(Oc2ccccc2)cc1 endpointname=Activity valuereported=6.2
compound=CCCCCCCCCCCCCCCCOC[C@H]1NC[C@H](O)[C@@H]1O endpointname=Activity valuereported=2.8
compound=Cl.O[C@H]1CN[C@H](COCCCCCC/C=C/c2ccc(-c3ccccc3)cc2)C1 endpointname=Activity valuereported=71.5
compound=Cl.O[C@H]1CN[C@H](COCCCCCCCCC/C=C/c2ccc(-c3ccccc3)cc2)C1 endpointname=Activity valuereported=84.9
compound="CCCCCCCCCCCCCCCCCCOCC(COP(=O)([O-])OCC[N+](C)(C)C)OC (stereo not given)" endpointname=Activity valuereported=15.6
compound=Cl.O[C@H]1CN[C@H](COCCCCCCCCC/C=C/c2ccc(Oc3ccccc3)cc2)C1 endpointname=Activity valuereported=27.8
compound=CCCCCC/C=C/CCCCCCCCOC[C@H]1NC[C@H](O)[C@@H]1O endpointname=Activity valuereported=5.7

----------
# System: PANC-1
# experimentSummary: Induction of apoptosis in human PANC1 cells assessed as accumulation at sub-G0/G1 phase at 10 uM after 72 hrs by propidium iodide staining based flow cytometry (reference value: 1.6 to 3.2%)
# Format: functional
endpointName: Activity

compound=Cl.O[C@H]1CN[C@H](COCCCCCCCCC/C=C/c2ccc(Oc3ccccc3)cc2)C1 endpointname=Activity valuereported=35.1%
compound=Cl.O[C@H]1CN[C@H](COCCCCCCCC/C=C/c2ccc(Oc3ccccc3)cc2)C1 endpointname=Activity valuereported=28.2%
compound=C(=C\c1ccc(-c2ccccc2)cc1)/CCCCCCOC[C@@H]1CCCN1.Cl endpointname=Activity valuereported=4.7%
compound=CCCCCC/C=C\CCCCCCCCOC[C@H]1NC[C@H](O)[C@@H]1O endpointname=Activity valuereported=18.6%
compound=Cl.NCC(=O)N1CCC[C@H]1COCCCCCC/C=C/c1ccc(-c2ccccc2)cc1 endpointname=Activity valuereported=9.5%
compound=CCCCCC/C=C/CCCCCCCCOC[C@H]1NC[C@H](O)[C@@H]1O endpointname=Activity valuereported=6.4%
compound=C(=C\c1ccc(-c2ccccc2)cc1)/CCCCCCCCCOC[C@@H]1CCCN1.Cl endpointname=Activity valuereported=8.4%
compound=O[C@H]1[C@@H](O)CN[C@@H]1COCCCCCCCC/C=C/c1ccc(Oc2ccccc2)cc1 endpointname=Activity valuereported=4.4%
compound="CCCCCCCCCCCCCCCCCCOCC(COP(=O)([O-])OCC[N+](C)(C)C)OC (centres undefined)" endpointname=Activity valuereported=15.8%
